B1: KCNAB2 (parent)
chain: IPPYSRASLKGYQWLKDKILSEEG

Variants of: B1
Method notes: protein stability index of a GFP-peptide fusion (GPS, HEK-293T) (PSI 1-6); higher = more stable;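 further: lentivirally expressed fusions sorted by FACS into six bins by GFP to DsRed ratio, PSI derived from sequencing read proportions per bin multiplied by bin number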
Experimental parameters: c terminus: a fixed tail appended
Form field: protein stability index (one value per entry).
Experimental endpoint: protein stability index

INSERT INTO assay_data (changes, recorded_number) VALUES
  ('L15G', 3.2),
  ('G11F', 3.33),
  ('K10F', 1.67),
  ('Y12F', 2.84),
  ('W14K', 3.65),
  ('K18M', 2.78),
  ('W14N', 3.78),
  ('P2T', 1.62),
  ('L20F', 1.98),
  ('S8A', 2.6),
  ('E22K', 1.75),
  ('A7P', 2.45);

The origin of these recorded values is the supplement of paper PMC10567573.
